Consider the following molecules and their measured Solubility in Soybean oil, In % of w/w readings.
test: Solubility in soybean oil; format: physicochemical

See these solved cases before continuing.
molecule: CCCCCCCCCCCCCCCC(=O)N1CC(C)(C)CN=C1NN=C(C=Cc1ccc(C(F)(F)F)cc1)C=Cc1ccc(C(F)(F)F)cc1 [drawing 33]
Solubility in Soybean oil, In % of w/w: 2.0 % of w/w
//
molecule: CC1(C)CN=C(NN=C(C=Cc2ccc(C(F)(F)F)cc2)C=Cc2ccc(C(F)(F)F)cc2)N(C(=O)c2ccccc2)C1 [drawing 32]
Solubility in Soybean oil, In % of w/w: 0.4 % of w/w
//
molecule: CC(=O)N1CC(C)(C)CN=C1NN=C(C=Cc1ccc(C(F)(F)F)cc1)C=Cc1ccc(C(F)(F)F)cc1 [drawing 31]
Solubility in Soybean oil, In % of w/w: 0.3 % of w/w

Next molecule, Solubility in Soybean oil, In % of w/w to be filled in.
Kindly note the recorded Solubility in Soybean oil, In % of w/w for CC1(C)CN=C(NN=C(C=Cc2ccc(C(F)(F)F)cc2)C=Cc2ccc(C(F)(F)F)cc2)NC1 , which is 0.1 % of w/w

---

system: Southern Armyworm [Spodoptera eridania (Cramer)]; test: whole plant or invertebrate; format: in vivo; conditions: 48 h, read-out: % kill, Southern Armyworm 3rd Instar
quantity-measured: mortality at 1000 ppm

Kindly note the recorded mortality at 1000 ppm for CC1(C)CN=C(NN=C(C=Cc2ccc(C(F)(F)F)cc2)C=Cc2ccc(C(F)(F)F)cc2)N(C(=O)c2ccccc2)C1 [drawing 35] , which is 100%

---

system: Cabbage Looper [Trichoplusia ni (Hubner)]; experiment: Insecticide test, cabbage looper 3rd instar; assay type: in vivo; conditions: 48 h, 100 ppm, 2 days, 26.7° C., read-out: % kill, Cabbage Looper 3rd Instar
quantity-measured: mortality at 100 ppm (%)
Express the result in % but write the number alone.

See these solved cases before continuing.
compound: CC(=O)N1CC(C)(C)CN=C1NN=C(C=Cc1ccc(Cl)cc1)C=Cc1ccc(Cl)cc1 [R1=Cl, R3=CH3]
system-under-test: Cabbage Looper [Trichoplusia ni (Hubner)]
mortality at 100 ppm, %: 100
//
compound: CC(C)C(=O)N1CC(C)(C)CN=C1NN=C(C=Cc1ccc(C(F)(F)F)cc1)C=Cc1ccc(C(F)(F)F)cc1 [R1=CF3, R3=(CH3)2 CH]
system-under-test: Cabbage Looper [Trichoplusia ni (Hubner)]
mortality at 100 ppm, %: 100
//
compound: CC(C)=CC(=O)N1CC(C)(C)CN=C1NN=C(C=Cc1ccc(C(F)(F)F)cc1)C=Cc1ccc(C(F)(F)F)cc1 [R1=CF3, R3=(CH3)2 CCH]
system-under-test: Cabbage Looper [Trichoplusia ni (Hubner)]
mortality at 100 ppm, %: 10

Kindly note the recorded mortality at 100 ppm for CCCCCCCCCC(=O)N1CC(C)(C)CN=C1NN=C(C=Cc1ccc(C(F)(F)F)cc1)C=Cc1ccc(C(F)(F)F)cc1 [R1=CF3, R3=n-C9 H19] , which is 60

---

test system: Tobacco Budworm [Heliothis virescens (Fabricius)]; test: whole plant or invertebrate; assay type: in vivo; conditions: 72 h, read-out: % kill, Tobacco Budworm 3rd Instar
Consider the following compounds and their measured mortality at 1000 ppm readings.
Express the result in % but write the number alone.

test-smiles: CCCCCCCC(=O)N1CC(C)(C)CN=C1NN=C(C=Cc1ccc(C(F)(F)F)cc1)C=Cc1ccc(C(F)(F)F)cc1
recorded-result: 100

test-smiles: CC(=O)N1CC(C)(C)CN=C1N(N=C(C=Cc1ccc(C(F)(F)F)cc1)C=Cc1ccc(C(F)(F)F)cc1)C(C)=O
recorded-result: 100

test-smiles: CCCCC(=O)N1CC(C)(C)CN=C1NN=C(C=Cc1ccc(C(F)(F)F)cc1)C=Cc1ccc(C(F)(F)F)cc1
recorded-result: 100

test-smiles: CCCCCCCCCCCCCCCC(=O)N1CC(C)(C)CN=C1NN=C(C=Cc1ccc(C(F)(F)F)cc1)C=Cc1ccc(C(F)(F)F)cc1
recorded-result: 100

test-smiles: CCCCCCCCCC(=O)N1CC(C)(C)CN=C1NN=C(C=Cc1ccc(C(F)(F)F)cc1)C=Cc1ccc(C(F)(F)F)cc1
recorded-result: 100

test-smiles: CC(=O)N1CC(C)(C)CN=C1NN=C(C=Cc1ccc(Cl)cc1)C=Cc1ccc(Cl)cc1
recorded-result: 100

Next compound, mortality at 1000 ppm to be filled in.
Kindly note the recorded mortality at 1000 ppm for CCCCCC(=O)N1CC(C)(C)CN=C1NN=C(C=Cc1ccc(C(F)(F)F)cc1)C=Cc1ccc(C(F)(F)F)cc1 , which is 100
